tested on: HCT-116 colon; experiment: NCI-60 one-dose screen, 48 h (100 = growth as untreated, 0 = no growth, -100 = all killed); conditions: 10 µM unless noted
The panel holds about 83,000 compounds, 20% with a hit somewhere; the sample as a whole holds those more often.
Binned growth; ranges: range A (below 10%), range B (10% to below 70%), range C (70% or more)

**Query** Band of `C=C1/C(=C\C=C2/CCC[C@]3(C)[C@@H]([C@H](C)CCCC(C)(C)O)CC[C@@H]23)C[C@@H](OC(=O)CBr)C[C@@H]1O` ?
**Result** range C

**Query** And what about the compound `COc1ccc(C(=O)/C=C/c2ccc(Cl)cc2)cc1S(N)(=O)=O` ?
**Result** range A

***
**Query** # bin label for CCn1c2ccccc2c2cc(C(O)c3cccc4ncccc34)ccc21 (stereo not drawn)
**Result** range A

**Query** Try the compound `C=CCn1c(SCC(=O)Nc2ccc(C(=O)/C=C/c3cc(OC)c(OC)c(OC)c3)cc2)nnc1-c1cc(-c2ccc(S(N)(=O)=O)cc2)nc2ccccc12`
**Result** range B

**Query** Next: COc1cc2c(c(OC)c1OC)CCC(c1cccc(C(=O)Nc3ccccc3Br)c1)O2 (stereo not drawn)
**Result** range C

**Query** Okay, and `CCc1ccc(Cc2cnc(NC(=O)c3cc(C)oc3C)s2)cc1` ?
**Result** range B

**Query** For CCN1C(=O)N(CC)C2C1NN=c1s/c(=C\c3ccc(F)cc3)c(=O)n12 (stereo not drawn) then?
**Result** range B

**Query** Query `C=CC(=O)NCc1cccc(Nc2ncc(Br)c(NCCCNC(=O)C3CCC3)n2)c1` next
**Result** range A

**Query** Input O=C1OCC2=C1C(c1cccc(F)c1)c1cc3c(cc1N2CCO)CCC3 (stereo not drawn)
**Result** range B

**Query** Then `CC(=O)O[C@H]1C[C@@]2(C)[C@@H](C[C@@H](O)[C@H]3[C@@]4(C)CC[C@H](N5CCCC5)[C@@H](C)[C@@H]4CC[C@@]32C)/C1=C(\CCC=C(C)C)C(=O)O` ?
**Result** range C

**Query** Same read-out for `COc1cc(/C=C2\CN(S(=O)(=O)c3ccc(C)cc3)C/C(=C\c3cc(CN4CCCC4)c(O)c(OC)c3)C2=O)cc(CN2CCCC2)c1O` ?
**Result** range A

**Query** Also `O=c1[nH]c(CN2CCN(c3ccccc3)CC2)nc2c(Br)cc(Br)cc12` ?
**Result** range C

**Query** Queued: COC(=O)c1nc(-c2ccccc2)oc1S(=O)(=O)NCC(c1ccc(Cl)cc1)N1CCCCC1 (stereo not drawn)
**Result** range C

**Query** How about `COCCNC(=O)Cc1cc(-c2ccc(Cl)cc2)n(-c2ccccc2)c1C` ?
**Result** range C

**Query** // query: CSc1nc(N)c2c(n1)NC(c1ccccc1)C1CCc3ccccc3C1=N2 (stereo not drawn)
**Result** range B

**Query** Check `CN(C)c1ccc(Cc2cc(-c3ccccc3)nn(C/C(=N/O)c3ccccc3)c2=O)cc1` too.
**Result** range B

**Query** Follow-up entry: `Cc1oc2ccc(O)c(CN3CCCCCC3)c2c1C(=O)Nc1ccc(C(F)(F)F)cc1`
**Result** range B

**Query** And `NC(=N\N=C/c1ccc(Cl)cc1Cl)/C(N)=N\N=C/c1ccc(Cl)cc1Cl` ?
**Result** range B

**Query** # iterate: `C(CCCSC1=NCCN1)CCSC1=NCCN1`
**Result** range C

**Query** Continue with CN1C(=O)N(C)C2C1NN=c1s/c(=C\c3ccc(F)cc3)c(=O)n12 (stereo not drawn)
**Result** range A

**Query** Same question for CC(CN)[C@@H]1CC[C@]2(CO)CC[C@]3(C)[C@H](CC[C@@H]4[C@@]5(C)CCC(NCCO)C(C)(C)[C@@H]5CC[C@]43C)[C@@H]12 (stereo partly drawn) please.
**Result** range A

**Query** Now give it for `CC1(C)CCC[C@]23C(=O)O[C@](O)(C(=O)C4=C[C@@](C)(/C=C/CCCc5ccc6ccc7cccc8ccc5c6c78)CC[C@@]42O)[C@@H]13` too.
**Result** range A

**Query** Record: `Cc1ccc(C(F)(F)F)cc1N1CCN(C(=O)[C@H]2C[C@H]2c2ccc(C(F)(F)F)nc2)CC1`
**Result** range C

----------
test system: SK-MEL-5 melanoma; assay: NCI-60 one-dose screen, 48 h (100 = growth as untreated, 0 = no growth, -100 = all killed); settings: 10 µM unless noted
About 83,000 compounds went through this panel and 20% of them were active in at least one assay; those are over-represented in the sample as a whole.
Reported endpoint: growth (%)
Numbers only, in %.

**Query** What growth value was documented for this compound, `CSc1nn2c(-c3cc4cc(Br)ccc4oc3=O)ccnc2c1C#N` ?
**Result** 101

**Query** Next compound up: C#CC(F)(F)[C@]1(O)CCC2C3CCC4=CC(=O)CCC4=C3[C@@H](c3ccc(N(C)C)cc3)C[C@@]21C (some centres not stated)
**Result** 84

**Query** Then this compound: `CCOC(=O)c1cc(C(=O)c2cc(OC)cc(OC)c2)n2ncccc12`
**Result** 26

**Query** And for `CCOc1ccc(-c2cc(C3(S(=O)(=O)c4ccc(C)cc4)CC=CC3)on2)cc1` ?
**Result** 69.8

**Query** For `O=C1N/C(=N/N=C(c2ccccc2)c2ccccc2)S/C1=C\c1ccc(Br)cc1` then?
**Result** 97.2

Give measured growth for every item shown.
1. Cc1nc2cccc(NCc3ccc(C(=O)NO)cc3)c2c(=O)n1-c1ccccc1
2. COc1cc(OC)cc(C(=O)Nc2cnc(Nc3ccc(N4CCOCC4)nc3)nc2Oc2ccc(C(F)(F)F)cc2)c1

**Result**
1: 8.27; 2: 93

----------
test system: UO-31 renal; assay: NCI-60 one-dose screen, 48 h; conditions: 10 µM unless noted
About 83,000 compounds went through this panel and 20% of them were active in at least one assay; those are over-represented in the sample as a whole. Calls of active or inactive are those of the source. How the source made its calls: active means growth percent below 10; inactive means the rest.
Could you please pick one outcome from this set? Yes (active), No (inactive)

Use these answered entries as a reference point.
**Query** Which outcome did this test record for the compound `O=C1N/C(=N/N=C(c2ccccc2)c2ccccc2)S/C1=C\c1ccc(Br)cc1` ?
**Result** No

**Query** // next record `N/C(=N\c1nc2ccccc2s1)NC(=O)Nc1ccccc1`
**Result** No

**Query** Input `FC(F)(F)c1cc(N2CCCCC2)nc(NCCCNc2ccnc3cc(Cl)ccc23)n1`
**Result** No

**Query** Please do the same for Nc1ncnc2c1N=C(c1ccc([N+](=O)[O-])cc1)CC(c1ccc3c(c1)OCO3)N2 (centres undefined) as well.
**Result** No

**Query** Now consider Cc1nc2sc(C(=O)Nc3ccccc3)c(N)c2cc1C(O)c1ccccc1 (centres undefined) and answer again.
**Result** No

New cases:
**Query** I would be grateful if you could indicate the recorded call for `O=C1c2ccccc2-c2c1c1ccncc1c(=O)n2CCCn1ccnc1` .
**Result** No

**Query** Similarly, `CC/C(=C(/c1ccc(Cl)cc1)c1ccc(OCCN2CCCCCC2)cc1)c1ccccc1` ?
**Result** No

**Query** Param item: `COC(=O)c1nc(-c2ccccc2)oc1S(=O)(=O)N1CCN(c2ccc(OC)cc2)CC1`
**Result** No

**Query** Please answer likewise for C#CCOC(=O)C(N)CSSCC(N)C(=O)O (centres undefined)
**Result** No

**Query** Now give it for `O=C(CSc1nc(-c2ccccc2)cn1-c1ccc(Cl)cc1)c1ccc([N+](=O)[O-])cc1` too.
**Result** No

----------
Answer each item with its documented growth.
tested on: OVCAR-4 ovarian; test: NCI-60 one-dose screen, 48 h (100 = growth as untreated, 0 = no growth, -100 = all killed); settings: 10 µM unless noted
Compounds without any hit were thinned out: in the full panel of roughly 83,000, 20% have a hit.
Numbers only, in %.

Below is a list of compounds. For each, state its recorded growth.
1. O=C(Nc1ncc(Cc2ccccc2)s1)c1ccc2c(c1)OCCO2
2. C=C(C)[C@@H]1CC[C@]2(C(=O)NC(C)=O)CC[C@]3(C)[C@H](CC[C@@H]4[C@@]5(C)CCCNC(C)(C)[C@@H]5CC[C@]43C)[C@@H]12
3. Cc1cc([N+](=O)[O-])ccc1NC(=O)c1ccc2c(c1)nc(-c1ccccc1)n2C1CCCCC1
4. O=C(Nc1ncc(Cc2cc(C(F)(F)F)ccc2Cl)s1)C(=S)N1CCOCC1
5. c1ccc2cc(Cn3cc[n+](Cc4ccc5ccccc5c4)c3)ccc2c1

**Result**
1: 46.3; 2: 33.9; 3: 95.2; 4: 84.5; 5: 0.592
